This collection of values is drawn from the supplement of paper PMC8728848.

target: Fuc(a1-3)[GalNAc(b1-4)]GlcNAc; assay: glycan array binding signal (z-score within array); higher = stronger binding; conditions: glycan notation: IUPAC condensed, linker removed
The full list was thinned out, with the strongest signals kept by preference.
quantity.name: glycan array binding signal (z-score)
Numbers only.

I'm hoping you can list glycan array binding signal (z-score) for every binder here, please.
1. AT5G24760(45) (Arabidopsis thaliana), Q8LEB2 (protein) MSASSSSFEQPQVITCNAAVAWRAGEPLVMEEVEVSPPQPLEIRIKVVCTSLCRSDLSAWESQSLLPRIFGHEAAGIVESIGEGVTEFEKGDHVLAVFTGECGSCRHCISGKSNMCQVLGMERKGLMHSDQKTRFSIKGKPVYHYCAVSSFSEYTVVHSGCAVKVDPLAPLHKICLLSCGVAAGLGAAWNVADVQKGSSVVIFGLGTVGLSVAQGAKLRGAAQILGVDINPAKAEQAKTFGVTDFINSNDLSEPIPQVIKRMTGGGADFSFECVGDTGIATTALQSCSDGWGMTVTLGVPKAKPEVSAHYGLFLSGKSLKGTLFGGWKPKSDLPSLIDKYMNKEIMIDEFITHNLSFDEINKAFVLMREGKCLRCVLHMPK
2. TAL6-4LysM (Trichoderma atroviride) (protein) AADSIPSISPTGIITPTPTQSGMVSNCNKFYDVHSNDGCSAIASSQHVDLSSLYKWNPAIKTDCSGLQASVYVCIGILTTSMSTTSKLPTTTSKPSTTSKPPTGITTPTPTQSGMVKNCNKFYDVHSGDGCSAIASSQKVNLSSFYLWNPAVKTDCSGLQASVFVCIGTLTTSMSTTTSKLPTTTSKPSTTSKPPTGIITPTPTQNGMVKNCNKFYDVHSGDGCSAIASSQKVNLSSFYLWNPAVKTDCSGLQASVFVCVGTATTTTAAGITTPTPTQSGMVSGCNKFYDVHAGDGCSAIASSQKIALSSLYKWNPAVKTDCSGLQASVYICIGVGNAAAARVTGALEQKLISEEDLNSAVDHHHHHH
3. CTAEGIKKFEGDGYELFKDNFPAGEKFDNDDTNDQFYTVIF [MUB40 (Lactobacillus reuteri)]
4. SIGNR8 (Mus musculus) (protein) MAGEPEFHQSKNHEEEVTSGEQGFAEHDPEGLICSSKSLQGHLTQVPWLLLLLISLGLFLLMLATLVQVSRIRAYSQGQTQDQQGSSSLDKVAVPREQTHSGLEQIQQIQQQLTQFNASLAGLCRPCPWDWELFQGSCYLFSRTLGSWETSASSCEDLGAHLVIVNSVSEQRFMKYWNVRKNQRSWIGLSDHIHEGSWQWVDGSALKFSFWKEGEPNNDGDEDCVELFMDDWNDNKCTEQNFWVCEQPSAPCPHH

1.18
3.19
-0.365
-0.369
